Where these numbers come from: patent US20250352659A1

# MEASURED_TARGET: T1, B7H3 (human, UniProt Q5ZPR3 29-534)
# T1 sequence (looked up): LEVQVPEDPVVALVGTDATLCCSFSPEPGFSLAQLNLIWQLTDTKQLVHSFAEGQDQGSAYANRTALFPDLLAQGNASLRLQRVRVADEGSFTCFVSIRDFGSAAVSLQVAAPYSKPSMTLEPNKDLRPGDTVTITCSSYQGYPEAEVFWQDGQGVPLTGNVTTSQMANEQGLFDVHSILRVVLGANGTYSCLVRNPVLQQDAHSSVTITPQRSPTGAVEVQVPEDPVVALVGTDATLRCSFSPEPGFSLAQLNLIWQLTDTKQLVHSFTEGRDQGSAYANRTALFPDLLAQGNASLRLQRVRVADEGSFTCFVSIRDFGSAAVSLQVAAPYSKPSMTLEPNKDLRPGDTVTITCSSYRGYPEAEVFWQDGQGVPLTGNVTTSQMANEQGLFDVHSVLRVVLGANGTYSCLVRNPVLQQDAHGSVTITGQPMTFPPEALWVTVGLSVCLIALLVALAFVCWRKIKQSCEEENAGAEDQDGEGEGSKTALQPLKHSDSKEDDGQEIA
# TEST_DESCRIPTION: cell-based or functional assay
The label criterion met is reserved for EC50 (nM), ADC direct killing, NCI-H1650 (High), 3D strictly under 2 nM; criterion not met covers values equal to or above it.

BINDER: ADC4-B (antibody, human IgG1, kappa, V domains shown, conjugator-linker-payload on cysteine thiols after TCEP reduction (DAR8); residues not numbered; structure given only as a drawing) VH: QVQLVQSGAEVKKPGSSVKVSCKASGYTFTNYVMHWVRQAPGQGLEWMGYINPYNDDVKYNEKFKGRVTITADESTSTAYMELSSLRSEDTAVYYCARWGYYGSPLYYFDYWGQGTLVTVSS VL: EIVLTQSPATLSLSPGERATLSCRASSRLIYMHWYQQKPGQAPRPLIYATSNLASGIPARFSGSGSGTDFTLTISSLEPEDFAVYYCQQWNSNPPTFGQGTKVEIKR
CATEGORY: criterion not met
//
BINDER: ADC4-13 (antibody, human IgG1, kappa, V domains shown, conjugator-linker-payload on cysteine thiols after TCEP reduction (DAR8), maleimide hydrolysed; residues not numbered; structure given only as a drawing) VH: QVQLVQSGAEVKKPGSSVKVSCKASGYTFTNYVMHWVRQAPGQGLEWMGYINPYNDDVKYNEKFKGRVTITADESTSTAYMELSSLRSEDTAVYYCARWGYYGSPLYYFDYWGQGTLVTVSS VL: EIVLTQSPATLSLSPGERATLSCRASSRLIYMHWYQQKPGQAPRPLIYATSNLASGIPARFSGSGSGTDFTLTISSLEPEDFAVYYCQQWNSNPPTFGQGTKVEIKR
CATEGORY: criterion met
//
BINDER: ADC4-12 (antibody, human IgG1, kappa, V domains shown, conjugator-linker-payload on cysteine thiols after TCEP reduction (DAR8), maleimide hydrolysed; residues not numbered; structure given only as a drawing) VH: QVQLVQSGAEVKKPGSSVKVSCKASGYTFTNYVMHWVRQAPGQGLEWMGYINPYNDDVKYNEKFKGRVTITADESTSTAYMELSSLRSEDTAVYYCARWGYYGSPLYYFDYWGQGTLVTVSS VL: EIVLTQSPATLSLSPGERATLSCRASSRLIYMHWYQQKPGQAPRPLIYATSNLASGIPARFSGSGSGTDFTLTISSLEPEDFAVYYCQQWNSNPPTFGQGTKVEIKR
CATEGORY: criterion not met
//
BINDER: ADC4-16 (antibody, human IgG1, kappa, V domains shown, conjugator-linker-payload on cysteine thiols after TCEP reduction (DAR8), maleimide hydrolysed; residues not numbered; structure given only as a drawing) VH: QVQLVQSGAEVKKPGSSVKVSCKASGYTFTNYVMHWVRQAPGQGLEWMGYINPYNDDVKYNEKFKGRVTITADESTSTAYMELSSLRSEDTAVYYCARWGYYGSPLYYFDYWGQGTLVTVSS VL: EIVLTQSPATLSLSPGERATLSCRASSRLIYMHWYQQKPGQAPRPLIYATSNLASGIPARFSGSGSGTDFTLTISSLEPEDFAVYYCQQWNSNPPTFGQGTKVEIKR
CATEGORY: criterion met
//
BINDER: ADC4-14 (antibody, human IgG1, kappa, V domains shown, conjugator-linker-payload on cysteine thiols after TCEP reduction (DAR8), maleimide hydrolysed; residues not numbered; structure given only as a drawing) VH: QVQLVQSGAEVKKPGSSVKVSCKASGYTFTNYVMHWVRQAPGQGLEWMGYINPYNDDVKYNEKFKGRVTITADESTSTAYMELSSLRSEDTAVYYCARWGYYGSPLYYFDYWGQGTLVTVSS VL: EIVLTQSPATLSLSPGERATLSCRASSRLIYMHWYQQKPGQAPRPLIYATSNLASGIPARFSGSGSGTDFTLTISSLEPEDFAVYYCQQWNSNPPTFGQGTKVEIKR
CATEGORY: criterion met
//
BINDER: ADC4-11 (antibody, human IgG1, kappa, V domains shown, conjugator-linker-payload on cysteine thiols after TCEP reduction (DAR8), maleimide hydrolysed; residues not numbered; structure given only as a drawing) VH: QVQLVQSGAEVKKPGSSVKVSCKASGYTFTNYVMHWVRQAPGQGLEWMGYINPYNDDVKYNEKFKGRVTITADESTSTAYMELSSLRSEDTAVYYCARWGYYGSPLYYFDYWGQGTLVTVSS VL: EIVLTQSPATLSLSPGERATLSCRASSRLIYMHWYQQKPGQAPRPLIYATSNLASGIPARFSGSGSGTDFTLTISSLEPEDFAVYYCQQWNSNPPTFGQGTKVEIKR
CATEGORY: criterion not met
